Could you please report measured Inhibiton (%) of BO for the items listed next?
- Tested on: brassinin oxidase (BO)
- EXPERIMENTAL_DETAILS: Inhibitory effect of paldoxins on purified BO (brassinin as substrate, HPLC-DAD)
- Type: biochemical, Leptosphaeria maculans
- RUN_PARAMETERS: test compound 0.10 mM; brassinin 0.10 mM; purified BO; ± SD of four independent experiments
The answer is to be given in %; state only the numeric part.

Please give the measured Inhibiton (%) of BO for this molecule: Fc1ccc2c(-c3ccccc3)c[nH]c2c1 [I(e), 6-Fluoro-3-phenylindole]
11

Please give the measured Inhibiton (%) of BO for this molecule: c1ccc2[nH]c(-c3cscn3)nc2c1 [Thiabendazole, reference compound]
16

Please give the measured Inhibiton (%) of BO for this molecule: `Fc1ccc2[nH]cc(-c3nccs3)c2c1`
47

Please give the measured Inhibiton (%) of BO for this molecule: `CSC1=NCc2c([nH]c3ccccc23)S1`
23

Please give the measured Inhibiton (%) of BO for this molecule: `CSC(=S)NCc1cc2ccccc2[nH]1`
11

Please give the measured Inhibiton (%) of BO for this molecule: `Fc1ccc2c(-c3nccs3)c[nH]c2c1`
29

Please give the measured Inhibiton (%) of BO for this molecule: `c1ccc2c(-c3nccs3)c[nH]c2c1`
30

Please give the measured Inhibiton (%) of BO for this molecule: `COc1ccc2[nH]cc(-c3nccs3)c2c1`
51

Please give the measured Inhibiton (%) of BO for this molecule: `COc1ccc2c(-c3nccs3)c[nH]c2c1`
41

====

Could you please report measured Inhibiton (%) of BO for the items listed next?
- System: brassinin oxidase (BO)
- EXPERIMENTAL_DETAILS: Inhibitory effect of paldoxins on purified BO (brassinin as substrate, HPLC-DAD)
- Format: biochemical, Leptosphaeria maculans
- RUN_PARAMETERS: test compound 0.30 mM; brassinin 0.10 mM; purified BO; ± SD of four independent experiments
- Method: For purification of brassinin oxidase, 600 mL of 48 h old liquid cultures prepared as described above, were incubated with 3-phenylindole (19, 0.05 mM final concentration in cultures to induce BO) for an additional 24 h and then gravity filtered to separate mycelia from culture broth. The mycelia was stored at −20° C. up to 72 h and used to obtain protein extracts containing BO activity. […]
The answer is to be given in %; state only the numeric part.

Please give the measured Inhibiton (%) of BO for this compound: Fc1ccc2c(-c3ccccc3)c[nH]c2c1 [I(e), 6-Fluoro-3-phenylindole]
17

Please give the measured Inhibiton (%) of BO for this compound: `CSC(=S)NCc1cc2ccccc2[nH]1`
23

Please give the measured Inhibiton (%) of BO for this compound: `CSC1=NCc2c([nH]c3ccccc23)S1`
37

Please give the measured Inhibiton (%) of BO for this compound: `Fc1ccc2c(-c3nccs3)c[nH]c2c1`
46

Please give the measured Inhibiton (%) of BO for this compound: `c1ccc2c(-c3nccs3)c[nH]c2c1`
53

Please give the measured Inhibiton (%) of BO for this compound: c1ccc2[nH]c(-c3cscn3)nc2c1 [Thiabendazole, reference compound]
25

====

- Tested on: mycelial cultures of L. maculans
- EXPERIMENTAL_DETAILS: Antifungal activity: total protein content of cell-free extracts of treated mycelial cultures
- Assay type: cell-based, Leptosphaeria maculans
- RUN_PARAMETERS: 0.20 mM added to mycelial cultures, 24 h; control culture = 1.0
READOUT_TYPE: Relative Protein
Form rule: numeric answer, no unit written next to it.

Please give the measured Relative Protein for this compound: `c1ccc2c(-c3nccs3)c[nH]c2c1`
0.24

Please give the measured Relative Protein for this compound: `COc1ccc2c(-c3nccs3)c[nH]c2c1`
0.16

Please give the measured Relative Protein for this compound: `Fc1ccc2c(-c3nccs3)c[nH]c2c1`
0.28

Please give the measured Relative Protein for this compound: c1ccc2[nH]c(-c3cscn3)nc2c1 [Thiabendazole, reference compound]
0.28

Please give the measured Relative Protein for this compound: `Fc1ccc2[nH]cc(-c3nccs3)c2c1`
0.23

Please give the measured Relative Protein for this compound: `c1ccc2cc(-c3cnsc3)ccc2c1`
0.17

Please give the measured Relative Protein for this compound: `COc1ccc2[nH]cc(-c3nccs3)c2c1`
0.24
